- target.of.assay: Thyroid hormone receptor alpha (Homo sapiens)
- Sequence (P10827 whole entry): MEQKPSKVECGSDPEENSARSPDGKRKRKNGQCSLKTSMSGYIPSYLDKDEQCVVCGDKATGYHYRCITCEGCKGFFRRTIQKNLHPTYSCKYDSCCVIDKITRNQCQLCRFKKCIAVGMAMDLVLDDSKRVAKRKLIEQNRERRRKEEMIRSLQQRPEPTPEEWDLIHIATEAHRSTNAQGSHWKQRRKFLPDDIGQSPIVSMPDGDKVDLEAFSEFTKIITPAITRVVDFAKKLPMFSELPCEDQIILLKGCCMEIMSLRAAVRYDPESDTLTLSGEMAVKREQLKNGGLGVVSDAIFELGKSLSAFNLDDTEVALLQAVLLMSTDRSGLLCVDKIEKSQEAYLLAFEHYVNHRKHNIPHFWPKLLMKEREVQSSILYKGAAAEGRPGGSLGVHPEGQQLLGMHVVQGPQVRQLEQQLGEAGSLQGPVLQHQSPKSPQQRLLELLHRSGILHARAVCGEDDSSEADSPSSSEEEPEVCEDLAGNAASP
measured.quantity: EC50
Just the number plus its unit, please.

molecule	EC50
CC1(C)C2CCC(NC(=O)c3cc(Oc4c(Cl)cc(-n5ncc(=O)[nH]c5=O)cc4Cl)ccc3O)C1C2 (stereo in doubt; 9i)	12 nM

Query :: Reported EC50 for Thyroid hormone receptor alpha (Homo sapiens), given O=c1cnn(-c2cc(Cl)c(Oc3ccc(O)c(S(=O)(=O)N4C5CCC4CC4(CCCO4)C5)c3)c(Cl)c2)c(=O)[nH]1 (configuration not stated) ?
Result :: 1500 nM

----------
- target.of.assay: Thyroid hormone receptor beta (Homo sapiens)
- Sequence (P10828 whole entry): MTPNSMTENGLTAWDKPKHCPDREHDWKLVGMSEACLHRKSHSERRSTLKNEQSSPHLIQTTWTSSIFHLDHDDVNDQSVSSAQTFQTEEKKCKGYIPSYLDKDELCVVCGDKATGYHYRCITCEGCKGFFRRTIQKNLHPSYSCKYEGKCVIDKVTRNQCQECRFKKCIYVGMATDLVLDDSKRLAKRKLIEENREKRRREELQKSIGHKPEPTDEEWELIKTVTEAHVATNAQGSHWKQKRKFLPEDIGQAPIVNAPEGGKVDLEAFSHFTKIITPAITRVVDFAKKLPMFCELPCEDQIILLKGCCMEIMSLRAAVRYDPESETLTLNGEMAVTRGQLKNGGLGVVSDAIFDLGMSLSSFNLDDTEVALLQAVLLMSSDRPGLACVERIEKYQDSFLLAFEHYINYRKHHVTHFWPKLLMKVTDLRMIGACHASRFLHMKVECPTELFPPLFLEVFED
- method.summary: Effective concentration binding towards TR-beta-1 in E25B2 cells (agonistic activity)
measured.quantity: EC50
A complete answer gives the number and then names the unit.

Query :: Please provide the recorded EC50 for O=c1cnn(-c2cc(Cl)c(Oc3ccc(O)c(S(=O)(=O)N4C5CCC4CC4(CCCO4)C5)c3)c(Cl)c2)c(=O)[nH]1 (stereo unspecified) , tested on Thyroid hormone receptor beta (Homo sapiens).
Result :: 62 nM

Values compiled from ChEMBL document CHEMBL1136512.
